Here the recorded melting point is given for each entry.

Illustrative cases are given below, each with its answer.
{"compound": "CCCn1c(=O)c2c(nn3cc(-c4ccccc4)[nH]c23)n(Cc2ccccc2)c1=O", "melting point": "261 to 262 °C"}
{"compound": "C#Cc1cnc2sc(S(=O)(=O)CCCCCCC)nn2c1=O", "melting point": "180 to 182 °C"}
{"compound": "COc1ccc(NC(=O)c2ccccc2Cl)cc1", "melting point": "113 to 115 °C"}
{"compound": "Cc1nnc2n1-c1sc(CCc3ccc(CC(C)C)cc3)cc1C(c1ccccc1Cl)=NC2C (stereo not given)", "melting point": "130 to 132 °C"}
{"compound": "CCOC(=O)c1cn(-c2nonc2C)c2c(F)c(F)c(F)cc2c1=O", "melting point": "201 to 202 °C"}

Using the record for CCOC(=O)C(=O)c1oc(=O)[nH]c1-c1ccc(Cl)cc1 , state its measured melting point.
152 to 153 °C

Using the record for CCCCCCCCCCCCCCOC(=O)c1cc(C(=O)OCCCCCCCCCCCCCC)cc(N(CC(=O)O)CC(=O)O)c1 , state its measured melting point.
84 to 87 °C

Using the record for CC(N)C(=O)N1CC(=O)N(CC(N)=O)C1(C)C (stereo not given) , state its measured melting point.
196 to 197 °C

Using the record for CCCCN(Cc1ccc(-c2ccccc2-c2nnn[nH]2)cc1)c1ncncc1C(=O)OC(C)OC(=O)C(C)(C)C (stereo not given) , state its measured melting point.
71 to 85 °C

Using the record for Cn1nnc2ccc(C(c3ccc(Cl)cc3)n3ccnc3)cc21 (stereo not given) , state its measured melting point.
87.7 °C

All values here come from a melting point compilation (Tetko et al.; mined from patent text by program, amines drawn as free bases though some values may be those of a salt).
